Sourced from ChEMBL document CHEMBL1156252

target: Sigma-1 receptor (Homo sapiens, Jurkat); experiment: Displacement of [3H](+)-pentazocine from sigma 1 receptor in human Jurkat cells by scintillation counting
Assay metric: IC50 (nM)

Challenge: If you can, please state the reported IC50 value of CN(CCCn1c(=O)[nH]c2ccccc2c1=O)Cc1ccccc1 .
Response given: 116

Challenge: What about this compound? CN(CCCN1C(=O)[C@H]2Cc3ccccc3C[C@H]2C1=O)Cc1ccccc1
Response given: 57

I = CN(CCCn1c(=O)[nH]c2ccc(I)cc2c1=O)Cc1ccccc1
II = CN(CCCN1C(=O)C2Cc3ccccc3CN2C1=S)Cc1ccccc1 (stereo not drawn)
Challenge: Task for the reader: decide whether I or II has the larger IC50. Reply with the label of the item you choose.
Response given: I
(I: 103 nM, II: 4.5 nM)

###

test: Displacement of [3H]DTG […] from sigma 2 receptor in rat cerebral cortex after 120 mins; format: tissue-based
Assay metric: IC50

Challenge: If you can, please state the reported IC50 value of CN(CCCN1C(=O)[C@@H]2Cc3ccccc3CN2C1=O)Cc1ccccc1 .
Response given: > 0.5 µM

###

biological target: Sigma-1 receptor (Homo sapiens, Jurkat); assay: Displacement of [3H](+)-pentazocine from sigma 1 receptor in human Jurkat cells by scintillation counting
pIC50: −log10 of the molar value.
pIC50 listing for selected compounds.

For orientation, consider the following solved cases.
Challenge: If you can, please state the reported pIC50 value of CN(CCCN1C(=O)c2cccnc2C1=O)Cc1ccccc1 .
Response given: < 6.70

Challenge: What about this compound? CN(CCCN1C(=O)[C@H](Cc2ccccc2)N(C)C1=O)Cc1ccccc1
Response given: < 6.70

Challenge: What about this compound? CN(CCCN1C(=O)c2ccncc2C1=O)Cc1ccccc1
Response given: < 6.70

Next up:
Challenge: If you can, please state the reported pIC50 value of CN(CCCn1c(=O)[nH]c2ccc(Cl)cc2c1=O)Cc1ccccc1 .
Response given: < 6.70
